experiment: RP, Waters ACQUITY UPLC BEH C18, 100 × 2.1 mm, 1.7 µm, 0.2 mL/min, estimated dead time 1.1 min; A: water + 0.025% formic acid + 20 mM ammonium acetate + 0.055% ammonium hydroxide, pH 7; B: methanol; gradient (min/%B) 0/5 5/5 25/100 30/100 30.1/5 35/5
settings: stereoisomer not certain
quantity name: LC retention time (min)

> print(dat)
                                   molecule  test.value
1  CC(=O)OCC(=O)C1(O)CCC2C3CCC4=CC(=O)CCC4(C)C3C(O)CC21C (stereo not drawn) [CORTISOL 21-ACETATE]        19.4
2  NC(=O)[C@@H](N)Cc1c[nH]c2ccccc12 [L-TRYPTOPHANAMIDE]        10.1
3  C[n+]1cccc(C(N)=O)c1 [1-METHYLNICOTINAMIDE]        1.35

* * *

experiment: RP, Waters ACQUITY UPLC BEH C18, 100 × 2.1 mm, 1.7 µm, 0.1 mL/min, estimated dead time 2.2 min; A: water + 0.1% formic acid, pH 3; B: methanol + 0.1% formic acid, pH 3; gradient (min/%B) 0/5 5/5 25/100 30/100 30.1/5 35/5
settings: stereoisomer not certain
The following molecules are listed with their measured LC retention time values.
quantity name: LC retention time (min)

> print(dat)
                                   molecule  measurement.unit  test.value
1  Nc1c(O)cccc1C(=O)CC(N)C(=O)O (centres undefined) [3-HYDROXYKYNURENINE]               min        2.83
2               Nc1ncnc2nc[nH]c12 [ADENINE]               min        2.71
3    OCCc1c[nH]c2ccccc12 [INDOLE-3-ETHANOL]               min        18.2
4     Cn1c(=O)c2c(ncn2C)n(C)c1=O [CAFFEINE]               min        14.4

* * *

The following compounds are listed with their measured LC retention time values.
experiment: HILIC, Waters XBridge BEH Amide, 100 × 2.1 mm, 2.5 µm, 0.5 mL/min, estimated dead time 0.44 min; A: water + 0.1% acetic acid + 10 mM ammonium acetate, pH 4; B: 5% water + 95% acetonitrile + 0.1% acetic acid + 10 mM ammonium acetate, pH 4; gradient (min/%B) 0/95 5/95 20/57 25/57 30/95 40/95
settings: stereoisomer not certain
quantity name: LC retention time (min)

> print(dat)
                                    compound      quantity.name  test.value
 1  O=C(O)CCCCCCCCCCCO [OMEGA-HYDROXYDODECANOIC ACID]  LC retention time         1.1
 2  Cn1cnc2c(ncn2C2OC(CO)C(O)C2O)c1=N (configuration not stated)  LC retention time        2.22
 3                          c1ncc2[nH]cnc2n1  LC retention time        1.59
 4             COc1ccc2[nH]cc(CCNC(C)=O)c2c1  LC retention time        0.63
 5              CC(=O)N[C@@H](CC(=O)O)C(=O)O  LC retention time        13.5
 6              O=c1[nH]c(=O)c2[nH]cnc2[nH]1  LC retention time        6.47
 7  O=C([O-])CCc1ccccc1O [3-(2-HYDROXYPHENYL)PROPANOATE]  LC retention time        1.75
 8  O=C(O)c1ccc2ccccc2c1[O-] [1-HYDROXY-2-NAPHTHOATE]  LC retention time        1.05
 9            CC(=O)N[C@@H](Cc1ccccc1)C(=O)O  LC retention time        6.98
10  O=c1ccn(C2OC(CO)C(O)C2O)c(=O)[nH]1 (configuration not stated)  LC retention time        3.95
11                     O=c1[nH]cnc2nc[nH]c12  LC retention time        3.97
12  CSCC1OC(n2cnc3c(N)ncnc32)C(O)C1O (configuration not stated)  LC retention time        1.61

* * *

experiment: RP, Waters CORTECS T3, 100 × 2.1 mm, 2.7 µm, 0.3 mL/min, estimated dead time 0.73 min; A: water + 0.1% formic acid, pH 3; B: methanol + 0.1% formic acid, pH 3; gradient (min/%B) 0/0 5/0 25/100 30/100 30.1/0 35/0
settings: stereoisomer not certain
The following molecules are listed with their measured log10 of LC retention time values.
quantity name: log10 of LC retention time (log10 of the value in min)

> print(dat)
                                    molecule               quantity.name  test.value
 1                        CSc1ncnc2nc[nH]c12  log10 of LC retention time        1.04
 2                  N[C@@H](Cc1ccccc1)C(=O)O  log10 of LC retention time        1.11
 3  Cc1ncc(C[n+]2csc(CCOP(=O)(O)O)c2C)c(N)n1 [THIAMINE MONOPHOSPHATE]  log10 of LC retention time       -0.05
 4  CCOC(=O)Cc1c[nH]c2ccccc12 [ETHYL 3-INDOLEACETATE]  log10 of LC retention time        1.24
 5  CC1NCCc2cc(O)c(O)cc21 (stereo unspecified) [1-METHYL-6,7-DIHYDROXY-1,2,3,4-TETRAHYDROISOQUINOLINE]  log10 of LC retention time       -0.03
 6                      O=c1cc[nH]c(=O)[nH]1  log10 of LC retention time       -0.04
 7            CC(=O)N[C@@H](Cc1ccccc1)C(=O)O  log10 of LC retention time        1.11
 8  CCC(NC(=O)CCC(N)C(=O)O)C(=O)NCC(=O)O (stereo unspecified)  log10 of LC retention time       -0.03
 9  C=Cc1c(C)c2cc3[nH]c(cc4nc(cc5nc(cc1[nH]2)C(C)=C5CCC(=O)O)C(CCC(=O)O)=C4C)c(C)c3C=C  log10 of LC retention time        1.40
10  O=C([O-])Cc1c[nH]c2ccccc12 [INDOLE-3-ACETATE]  log10 of LC retention time        1.14
11  CCCCC(CC)COC(=O)c1ccccc1C(=O)OCC(CC)CCCC (stereo unspecified) [BIS(2-ETHYLHEXYL)PHTHALATE]  log10 of LC retention time        1.41
12  NC(=O)[C@@H](N)Cc1c[nH]c2ccccc12 [L-TRYPTOPHANAMIDE]  log10 of LC retention time        0.92
13                     Cn1cnc(=N)c2[nH]cnc21  log10 of LC retention time       -0.05
14         N[C@@H](Cc1cc(I)c(O)c(I)c1)C(=O)O  log10 of LC retention time        1.08
15  NC(=O)C1CCCN1C(=O)C(Cc1cnc[nH]1)NC(=O)C1CCC(=O)N1 (stereo unspecified)  log10 of LC retention time       -0.05
16  CCCCCCCCCCCCCCCC(O)C(N)CO (stereo unspecified)  log10 of LC retention time        1.35
17             COc1ccc2[nH]cc(CCNC(C)=O)c2c1  log10 of LC retention time        1.13
18                           Nc1cccc2ccccc12  log10 of LC retention time        1.06
19                    Nc1nc2nccnc2c(=O)[nH]1  log10 of LC retention time        0.47
20  O=C(O)CCCCC1SCC2NC(=O)NC21 (stereo unspecified)  log10 of LC retention time        1.07
21  CC12CCC(=O)C=C1CCC1C2C(=O)CC2(C)C1CCC2(O)C(=O)CO (stereo unspecified)  log10 of LC retention time        1.23
22  CC(C)(CO)C(O)C(=O)NCCC(=O)O (stereo unspecified)  log10 of LC retention time        0.93
23  CCCCCCCCCCCC(=O)OC(CC(=O)[O-])C[N+](C)(C)C (stereo unspecified)  log10 of LC retention time        1.31
24  CC(=O)OCC(=O)C1(O)CCC2C3CCC4=CC(=O)CCC4(C)C3C(O)CC21C (stereo unspecified) [CORTISOL 21-ACETATE]  log10 of LC retention time        1.27
25                         Nc1ncnc2nc[nH]c12  log10 of LC retention time       -0.04
26            O=C(O)c1cc(=O)c2cccc(O)c2[nH]1  log10 of LC retention time        1.01
27  Cn1cnc2c(ncn2C2OC(CO)C(O)C2O)c1=N (stereo unspecified)  log10 of LC retention time        0.93
28  CCCCCCCCC=CCCCCCCCC(=O)OCC(O)CO (racemic)  log10 of LC retention time        1.39
29  NC(N)=N[C@@H](CC(=O)O)C(=O)O [N-AMIDINO-L-ASPARTATE]  log10 of LC retention time       -0.05
30  N[C@@H](Cc1cc(I)c(Oc2ccc(O)cc2)c(I)c1)C(=O)O  log10 of LC retention time        1.21
31           N[C@@H](CCOC(=O)CCC(=O)O)C(=O)O  log10 of LC retention time       -0.03
